System: H2N2 subtype
Type: functional, organism-based, Influenza A virus (A/Japan/305/1957(H2N2))
SETUP_CONDITIONS: Influenza A virus, MDCK
Structures can show the parent of a compound that is named as a salt.
RESULT_TYPE: pEC50
Schema: pEC50 number; meaning minus log10 of the concentration expressed in molar units.

• CC1(N)C2CC3CC(C2)CC1C3 (centres undefined) = 5.46
• CC1(O)C2CC3CC(C2)CC1C3 (centres undefined) = 5.52
• NC1C2CC3CC(C2)CC1C3 (centres undefined) = 5.55
• C1CCC2(NC1)C1CC3CC(C1)CC2C3 (centres undefined) = 6.00
• NC12CC3CC(CC(C3)C1)C2 [AMANTADINE HYDROCHLORIDE] = 5.96

Quick check: pEC50 of C1CNC2(C1)C1CC3CC(C1)CC2C3 (centres undefined) ? 5.74

====

SYSTEM_TESTED: Glutamate NMDA receptor
PROTOCOL_SUMMARY: Inhibition of NMDA receptor in rat cerebellar granule neurons assessed as glutamate-induced intracellular calcium increase
Type: cell-based
RESULT_TYPE: pIC50
FYI, pIC50 means -log10 of a concentration in mol per litre.

* CC1(N)C2CC3CC(C2)CC1C3 (configuration not stated) | 3.51
* C1CCC2(NC1)C1CC3CC(C1)CC2C3 (configuration not stated) | 3.62
* C1CNC2(C1)C1CC3CC(C1)CC2C3 (configuration not stated) | 3.50

Consider now this further molecule.
Dear colleague, I am looking for the recorded pIC50 of the following molecule: CCCC1(N)C2CC3CC(C2)CC1C3 (configuration not stated) 3.59

====

SYSTEM_TESTED: Glutamate NMDA receptor
PROTOCOL_SUMMARY: Inhibition of NMDA receptor in rat cerebellar granule neurons assessed as NMDA-induced intracellular calcium increase
Format: cell-based
RESULT_TYPE: pIC50
The read-out pIC50 is expressed as -log10 of concentration in moles per litre.

Here are 4 compounds together with their reported answers.
- CC1(N)C2CC3CC(C2)CC1C3 (configuration not stated): 4.19
- C1CNC2(C1)C1CC3CC(C1)CC2C3 (configuration not stated): 4.30
- NC1C2CC3CC(C2)CC1C3 (configuration not stated): 3.66
- CCCC1(N)C2CC3CC(C2)CC1C3 (configuration not stated): 4.21

Can you look up the measured pIC50 of C1CCC2(NC1)C1CC3CC(C1)CC2C3 (configuration not stated) for me? 4.72

====

The entries below are paired with their reported MCC.
PROTOCOL_SUMMARY: Cytotoxicity against MDCK cells assessed as detectable alteration of normal cell morphology
Type: cell-based, Canis lupus familiaris
SETUP_CONDITIONS: dog, read-out: Activity
Structures can show the parent of a compound that is named as a salt.

Would you please look over these solved cases?
• C1CNC2(C1)C1CC3CC(C1)CC2C3 (centres undefined) = > 1.1 mM
• CC1(N)C2CC3CC(C2)CC1C3 (centres undefined) = > 1.24 mM
• CC1(O)C2CC3CC(C2)CC1C3 (centres undefined) = > 1.51 mM
• CCCC1(N)C2CC3CC(C2)CC1C3 (centres undefined) = > 1.09 mM

What measured MCC goes with CCC1(N)C2CC3CC(C2)CC1C3 (centres undefined) ? > 1.16 mM

Same for NC12CC3CC(CC(C3)C1)C2 [AMANTADINE HYDROCHLORIDE] > 1.33 mM

Try C1CCC2(NC1)C1CC3CC(C1)CC2C3 (centres undefined) next. > 1.03 mM

Entry to check: CCCC1(O)C2CC3CC(C2)CC1C3 (centres undefined) > 1.29 mM

Could you do the same for NC1C2CC3CC(C2)CC1C3 (centres undefined) , please? > 1.33 mM

====

Each entry below carries its recorded EC50.
Test system: H2N2 subtype
Type: functional, organism-based, Influenza A virus (A/Japan/305/1957(H2N2))
SETUP_CONDITIONS: Influenza A virus, MDCK

Some entries whose results are on file:
- CCCC1(O)C2CC3CC(C2)CC1C3 (stereo not drawn): < 2100 nM
- CCCC1(N)C2CC3CC(C2)CC1C3 (stereo not drawn): < 1700 nM

// next item, EC50 requested
Item CCC1(N)C2CC3CC(C2)CC1C3 (stereo not drawn) with H2N2 subtype - EC50? < 1900 nM

====

// reported IC50 for each item listed
SYSTEM_TESTED: Glutamate NMDA receptor
PROTOCOL_SUMMARY: Inhibition of NMDA receptor in rat cerebellar granule neurons assessed as glutamate-induced intracellular calcium increase
Format: cell-based

# example entries with known answers
• CC1(O)C2CC3CC(C2)CC1C3 (stereo not drawn) = > 350 µM
• NC1C2CC3CC(C2)CC1C3 (stereo not drawn) = > 350 µM

Query: IC50; subject: CCCC1(O)C2CC3CC(C2)CC1C3 (stereo not drawn) > 350 µM
